test: in vivo; details: Beagle, dog, po, 10 mg/kg
measuredQuantity: bioavailability (%)
Your answer should be a plain number; it is taken to be in %.

Req: Need bioavailability, item Cc1ccc(-n2nccn2)c(C(=O)N2CCCN2Cc2ccn(-c3ccccc3)n2)c1
Resp: 10

----------
test: in vivo; conditions: Beagle, dog, po, 10 mg/kg
measuredQuantity: Cmax (ng/mL)
Your answer is read as ng/mL, so omit the unit and give the number.

Req: Using the record for Cc1ccc(-n2nccn2)c(C(=O)N2CCCN2Cc2ccn(-c3ccccc3)n2)c1 , report its Cmax.
Resp: 287

----------
experiment: in vitro; settings: dog, MDCK-MDR1, Papp
measuredQuantity: Papp A→B (×10⁻⁶ cm/s)
Give just the numeric value; ×10⁻⁶ cm/s need not be written.

A selection of reference data follows.
compound	uom	Papp A→B
Cn1ccc(C(=O)N2C[C@@H]3COc4cc(F)ccc4[C@@H]3N2Cc2cccc(-c3ncccn3)c2)n1 (racemic)	×10⁻⁶ cm/s	0.78
COc1cc(CN2[C@H]3c4ccccc4OC[C@H]3CN2C(=O)C2CCCCC2)cc(OC)c1	×10⁻⁶ cm/s	17

Please turn your attention to the following entry.
Req: Look up Papp A→B for this compound: Cn1ccc(C(=O)N2C[C@@H]3CCc4cc(F)ccc4[C@@H]3N2Cc2cccc(-c3ncccn3)c2)n1 (racemic)
Resp: 9.3
